Assay: Solubility tests in potential process solvent mixtures
Assay type: physicochemical
Settings: 25 °C, organic solvent or mixture, thermodynamic from solid; Ethyl acetate - heptane 1:1
MEASURE: solubility (mg/mL)
Kindly provide the numeric value in mg/mL only, without the unit symbol.

Reported solubility for CN1CCN(C[C@H]2COc3cc4ncnc(Nc5cccc(Br)c5F)c4cc3O2)CC1 [Form D] was 23.1

---

Experiment: Approximate solubility by incremental addition of solvent
Format: physicochemical
Conditions: MEK, organic solvent or mixture, thermodynamic from solid, room temperature
MEASURE: solubility

Reported solubility for CN1CCN(C[C@H]2COc3cc4ncnc(Nc5cccc(Br)c5F)c4cc3O2)CC1 [Amorphous form] was > 100 mg/mL

---

Assay: pH dependent solubility tests in 0.1 M HCl, citrate buffer and USP phosphate buffers
Type: physicochemical
Settings: citrate buffer, aqueous buffer, thermodynamic from solid; effective pH 5.28
MEASURE: solubility
Returns: string containing the numeric result and its unit.

Reported solubility for CN1CCN(C[C@H]2COc3cc4ncnc(Nc5cccc(Br)c5F)c4cc3O2)CC1 [Form D] was 13.1 mg/mL

---

Assay: Solubility tests in potential process solvent mixtures
Format: physicochemical
Conditions: 25 °C, aqueous with cosolvent or surfactant or cyclodextrin, thermodynamic from solid; Isopropanol - water 1:3
MEASURE: solubility (µg/mL)
Kindly provide the numeric value in µg/mL only, without the unit symbol.

Reported solubility for CN1CCN(C[C@H]2COc3cc4ncnc(Nc5cccc(Br)c5F)c4cc3O2)CC1 [Form D] was 1200

---

Assay: Aqueous solubility
Format: physicochemical
Conditions: water, thermodynamic from solid, equilibration time one hour, pH 9.16
MEASURE: solubility at 1 h (µg/mL)
Kindly provide the numeric value in µg/mL only, without the unit symbol.

Reported solubility at 1 h for CN1CCN(C[C@H]2COc3cc4ncnc(Nc5cccc(Br)c5F)c4cc3O2)CC1 [Amorphous form] was 46
